B1: Formin-binding protein 4, residues 593 to 636; numbered along this chain, Q8N3X1 (parent)
chain: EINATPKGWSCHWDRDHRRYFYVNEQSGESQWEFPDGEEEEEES

variants of: B1; test: abundance fitness (aPCA) (normalised: wild type 0, dead -1); higher = more abundant; growth selection in yeast, the domain comes from the species named; conditions: Homo sapiens
Decide using abundance fitness: a value greater than or equal to -0.6 is Met, a smaller one is Not met.

>>> answer_label("E25W")
"Not met"
>>> answer_label("G8R")
"Not met"
>>> answer_label("E40G")
"Met"
>>> answer_label("F21P")
"Met"
>>> answer_label("H12Q")
"Met"
>>> answer_label("W32M")
"Met"
>>> answer_label("Q31N")
"Not met"
>>> answer_label("S30T")
"Met"
>>> answer_label("S44T")
"Met"
>>> answer_label("N24W")
"Not met"
>>> answer_label("D14T")
"Not met"
>>> answer_label("W9D")
"Not met"
>>> answer_label("H17A")
"Met"
>>> answer_label("D36N")
"Met"
>>> answer_label("S30V")
"Met"
>>> answer_label("T5F")
"Met"
>>> answer_label("E40N")
"Met"
>>> answer_label("G8L")
"Not met"
>>> answer_label("E25P")
"Met"
>>> answer_label("E33K")
"Met"
